target: Coa-F (Coa 311-505) (Staphylococcus aureus strain Newman, UniProt P08515 1-218 = GST); assay: apparent Kd from half-maximal binding in ELISA (GraphPad Prism)
Sequence (P08515 whole entry): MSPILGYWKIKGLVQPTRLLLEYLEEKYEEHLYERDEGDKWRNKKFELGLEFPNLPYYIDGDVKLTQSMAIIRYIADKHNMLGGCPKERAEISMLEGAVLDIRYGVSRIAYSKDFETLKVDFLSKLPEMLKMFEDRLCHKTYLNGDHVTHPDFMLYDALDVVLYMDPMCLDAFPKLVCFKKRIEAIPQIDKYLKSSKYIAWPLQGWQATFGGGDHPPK

# binder, Kd / nM
data = [
    ("FBE5-A12 (scFv, V domains shown) VH: QVQLVESGGGVVQPGRSLRLSCAASGFTFSSYGMHWVRQAPGKGLEWVAVISYDGSNKYYADSVKGRFTISRDNSKNTLYLQMNSLRGEDTAVYYCAREGGWEPNGLDYWGQGTLVTVSS VL: QAVLTQPPSASGTPGQRVTISCSGSDFNVGTNYVNWYQQLPGSAPKLLIYRNNQRPSGVPDRFSGSKSGTSATLGITGLQTGDEADYYCGTWDSSLSAEVFGGGTKLTVL", 0.647),
    ("FBE5-C1 (scFv, V domains shown) VH: EVQLVETRGGVVQPGRSLRLSCAASGFTFSSYGMHWVRQAPGKGLEWVAVISYDGSNKYYADSVKGRFTISRDNSKNTLYLQMNSLRAEDTAVYYCAREGTYYYDSSGYYEGGFDYWGQGTLVTVSS VL: QSVLTQPPSASGTPGQRVTISCSGSSSNIGSGPVNWYQQLPGTAPKLLIYSDTRRPSGIPDRLSGSKSGTSASLGISGLQSEDEADYYCAAWDDSLNGYAFGSGTKVTVL", 4.59),
    ("FBE5-C8 (scFv, V domains shown) VH: QMQLVQSGGGVVQPGRSLRLSCAASGFIFSNYGMHWVRQAPGKGLEWVAVISYDGSNKYYADSVKGRFTISRDNSKNTLYLQMDSLRAEDTAVYYCAREGVGGDYGDLPTGPYYYYGMDVWGQGTTVTVSS VL: QSVLTQPPSVSAAPGQKVTISCSGSSSNIGNNSVSWYQQLPGTAPKLLIYDNNKRPSGIPDRFSGSKSGTSATLGITGLQTGDEADYYCETWDSSLSAVVFGGGTKLTVL", 7),
]
